Test system: A549-ACTB-RAB5A
Assay: phenotypically active (imaging signature differs from DMSO and reproducible) at any of 0.3-9 uM (binary (1 = active, 0 = inactive)); higher = active
Conditions: treatment time: 24 h
Counter-ions that a name gives are not always drawn.
Outcome codes: active, inactive

[[record]]
compound = "O=C(Nc1ccc(-c2ccnc(Nc3ccc(N4CCOCC4)cc3)n2)cc1)[C@@H]1CCCN1"
class = "active"

[[record]]
compound = "NCCNS(=O)(=O)c1ccc(Cl)c2ccncc12 [CKI 7 dihydrochloride]"
class = "inactive"

[[record]]
compound = "Cc1c[nH]c2ncnc(-c3ccc(NC(=O)N(CCO)c4ccccc4)cc3)c12"
class = "active"

[[record]]
compound = "Cc1cc(Nc2cc(C)c(C#N)c(NC(C)CCCC(C)(C)O)n2)n[nH]1 (centres undefined) [TC-A 2317 hydrochloride]"
class = "active"

[[record]]
compound = "O=c1[nH]cnc2c1ncn2[C@H]1CC[C@@H](CO)O1"
class = "inactive"

[[record]]
compound = "N#CC[C@@H](C1CCCC1)n1cc(-c2ncnc3[nH]ccc23)cn1 [ruxolitinib-(S)]"
class = "active"

[[record]]
compound = "CC(C)C(=O)Nc1ncc(-c2cc(C(F)F)nn2-c2c(Cl)cccc2Cl)s1"
class = "active"

[[record]]
compound = "O=C(CCCCSc1nc(-c2ccc(-c3ccccc3)cc2)cc(=O)[nH]1)NO"
class = "active"

[[record]]
compound = "COC1=C(O)C(=O)c2ccccc2C1=O [2-hydroxy-3-methoxy-naphtoquinone]"
class = "inactive"

